Origin of values: patent US8987256B2

So I've got a bunch of compounds here, and I need their pEC50 values.
- test-system: soluble guanylate cyclase (sGC) (Rattus norvegicus)
- assay-info: Activating action at the sGC enzyme in vitro (PPi detection, luciferase)
- condition-details: read-out: EC50 (concentration at 50% of maximum efficacy), activating action at the sGC enzyme
Give bare numbers, as −log10 of the molar value.

Completed entries (count: 2):
>>> recorded_result("O=C(Nc1cccc(CC2(C(=O)O)CC2)c1)C(c1ccc(Cn2nc(-c3ccccc3)ccc2=O)cc1)C1CCCC1 (stereo not drawn)")
8.27
>>> recorded_result("O=C(Nc1cc(CC2(C(=O)O)CC2)ccc1F)C(c1ccc(CN2N=C(c3ccccc3)OCC2=O)cc1)C1CCCC1 (stereo not drawn)")
8.28

Now look at this entry.
Just so you know, measured pEC50 for CC(C(C(=O)Nc1cccc(CC2(C(=O)O)CC2)c1)c1ccc(CN2N=C(c3ccccc3)OCC2=O)cc1)C(F)(F)F (single isomer, unassigned) [Example 164] came out at 8.21

###

- test-system: soluble guanylate cyclase (sGC) (Rattus norvegicus, UniProt P20595)
- Construct: made in house; host or cells: baculovirus/Sf9 insect cells
- Sequence (P20595 whole entry): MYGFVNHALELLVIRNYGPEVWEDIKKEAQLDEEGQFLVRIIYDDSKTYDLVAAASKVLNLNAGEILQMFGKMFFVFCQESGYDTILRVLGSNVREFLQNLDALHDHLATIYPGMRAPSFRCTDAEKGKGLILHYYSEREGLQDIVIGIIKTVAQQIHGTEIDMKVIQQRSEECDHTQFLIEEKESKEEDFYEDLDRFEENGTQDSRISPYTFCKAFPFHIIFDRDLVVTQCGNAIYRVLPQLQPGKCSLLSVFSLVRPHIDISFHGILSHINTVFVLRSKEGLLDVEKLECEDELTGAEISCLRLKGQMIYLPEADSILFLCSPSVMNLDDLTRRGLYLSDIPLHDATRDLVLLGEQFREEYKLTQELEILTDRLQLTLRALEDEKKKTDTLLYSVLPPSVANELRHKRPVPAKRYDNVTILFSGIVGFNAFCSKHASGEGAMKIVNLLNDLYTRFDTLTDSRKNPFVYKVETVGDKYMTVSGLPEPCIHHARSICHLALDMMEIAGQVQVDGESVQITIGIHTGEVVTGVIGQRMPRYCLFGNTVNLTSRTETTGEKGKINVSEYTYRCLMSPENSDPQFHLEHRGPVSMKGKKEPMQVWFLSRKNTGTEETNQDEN
- Sequence (P19686 whole entry partner): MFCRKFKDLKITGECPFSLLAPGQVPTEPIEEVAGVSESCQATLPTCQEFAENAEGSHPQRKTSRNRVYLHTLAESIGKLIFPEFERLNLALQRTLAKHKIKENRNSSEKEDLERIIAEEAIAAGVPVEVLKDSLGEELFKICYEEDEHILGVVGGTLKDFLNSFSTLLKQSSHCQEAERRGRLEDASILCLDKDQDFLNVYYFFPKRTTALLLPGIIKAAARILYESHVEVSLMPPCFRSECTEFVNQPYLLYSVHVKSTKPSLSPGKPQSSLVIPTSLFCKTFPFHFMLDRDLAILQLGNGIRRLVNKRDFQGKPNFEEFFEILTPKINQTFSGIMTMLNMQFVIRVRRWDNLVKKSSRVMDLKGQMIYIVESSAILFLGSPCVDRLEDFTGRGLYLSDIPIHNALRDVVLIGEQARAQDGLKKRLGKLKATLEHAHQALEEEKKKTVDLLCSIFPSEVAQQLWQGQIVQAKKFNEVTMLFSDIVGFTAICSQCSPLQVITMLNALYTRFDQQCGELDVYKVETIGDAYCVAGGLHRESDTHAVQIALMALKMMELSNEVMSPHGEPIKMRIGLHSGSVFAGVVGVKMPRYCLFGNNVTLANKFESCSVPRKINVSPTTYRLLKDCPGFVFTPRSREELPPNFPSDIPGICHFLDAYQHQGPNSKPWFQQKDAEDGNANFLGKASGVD
- assay-info: Activating action at the sGC enzyme in vitro (PPi detection, luciferase)
- Assay type: biochemical
So I've got a bunch of compounds here, and I need their MEC (minimum effective concentration), activating action at the sGC enzyme values.
Answers are plain numbers, in nM.

Completed entries (count: 6):
>>> recorded_result("O=C(Nc1cc(F)cc(CC2(C(=O)O)CC2)c1)C(c1ccc(CN2N=C(c3ccccc3)OCC2=O)cc1)C1CCCC1 (single isomer, unassigned) [Example 237]")
0.9
>>> recorded_result("CCC(C)C(C(=O)Nc1cccc2c1CC(C)(C(=O)O)C2)c1ccc(CN2N=C(c3ccccc3)OCC2=O)cc1 (single isomer, unassigned) [Example 86]")
1.4
>>> recorded_result("CCC(C(C(=O)Nc1cccc(CC2(C(=O)O)CC2)c1)c1ccc(CN2N=C(c3ccccc3)OCC2=O)cc1)C(F)(F)F (stereo not drawn) [Example 170]")
1
>>> recorded_result("CC(C(C(=O)Nc1cc(CC2(C(=O)O)CC2)ccc1F)c1ccc(CN2N=C(c3ccccc3)OCC2=O)cc1)C(F)(F)F (stereo not drawn) [Example 186]")
0.1
>>> recorded_result("CC(C(C(=O)Nc1cccc(CC2(C(=O)O)CC2)c1)c1ccc(Cn2nc(C(F)(F)F)ccc2=O)cc1)C(F)(F)F (single isomer, unassigned) [Example 181]")
1.4
>>> recorded_result("CC(C)(Cc1cccc(NC(=O)C(c2ccc(Cn3nc(-c4ccccc4)ccc3=O)cc2)C2CCCC2)c1)C(=O)O (single isomer, unassigned) [Example 138]")
5.1

Batch lookup, MEC (minimum effective concentration), activating action at the sGC enzyme per entry.
1. CC(C(C(=O)Nc1cccc(CCC(=O)O)c1)c1ccc(CN2N=C(c3ccccc3)OCC2=O)cc1)C(F)(F)F (single isomer, unassigned) [Example 192]
2. O=C(Nc1cccc(CC2(C(=O)O)CC2)c1)[C@H](c1ccc(CN2Cc3c(F)cccc3C2=O)cc1)C1CCCC1 [Example 214]
3. CCC(C)C(C(=O)Nc1cccc(CCC(=O)O)c1C)c1ccc(CN2N=C(c3ccccc3)OCC2=O)cc1 (single isomer, unassigned) [Example 77]
4. O=C(O)CCc1ccc(F)c(NC(=O)[C@H](c2ccc(CN3N=C(c4ccccc4)OCC3=O)cc2)C2CCCC2)c1 [Example 224]
5. CC(C(C(=O)Nc1cccc(CC2(C(=O)O)CC2)c1)c1ccc(CN2N=C(c3ccccc3)OCC2=O)cc1)C(F)(F)F (single isomer, unassigned) [Example 164]
6. Cc1ccc(=O)n(Cc2ccc(C(C(=O)Nc3cccc(CC4(C(=O)O)CC4)c3)C3CCCC3)cc2)n1 (stereo not drawn) [Example 171]

Result block:
[2.5, 0.4, 0.4, 1, 0.5, 3.7]

###

- test-system: recombinant guanylate cyclase reporter cell line (Rattus norvegicus, UniProt P20595)
- Construct: expressed in transfected cells; host or cells: CHO reporter cell line
- Sequence (P20595 whole entry): as the sequence (P20595 whole entry) above
- Sequence (P19686 whole entry partner): as the sequence (P19686 whole entry partner) above
- assay-info: sGC-activating activity in the CHO reporter cell in vitro
- Assay type: cell-based
So I've got a bunch of molecules here, and I need their MEC (minimum effective concentration), sGC-activating activity in the CHO reporter cell values.
Give bare numbers, in nM.

Completed entries (count: 5):
>>> recorded_result("CCC(C)C(C(=O)Nc1cccc(CC(C)(C)C(=O)O)c1)c1ccc(CN2N=C(c3ccccc3)OCC2=O)cc1 (stereo not drawn)")
3
>>> recorded_result("CC(C)(Cc1cccc(NC(=O)C(c2ccc(Cn3nc(-c4ccccc4)ccc3=O)cc2)C2CCCC2)c1)C(=O)O (single isomer, unassigned)")
10
>>> recorded_result("Cc1c(CCC(=O)O)cccc1NC(=O)C(c1ccc(Cn2nc(-c3ccccc3)oc2=O)cc1)C1CCCC1 (racemic)")
30
>>> recorded_result("O=C(O)CCc1cc(F)cc(NC(=O)C(c2ccc(CN3N=C(c4ccccc4)OCC3=O)cc2)C2CCCC2)c1 (stereo not drawn)")
30
>>> recorded_result("O=C(Nc1cccc(CC2(C(=O)O)CC2)c1)[C@H](c1ccc(CN2Cc3c(F)cccc3C2=O)cc1)C1CCCC1")
0.1

Now look at this entry.
Just so you know, measured MEC (minimum effective concentration), sGC-activating activity in the CHO reporter cell for CC(C(C(=O)Nc1cccc(CC2(C(=O)O)CC2)c1)c1ccc(CN2N=C(c3ccccc3)OCC2=O)cc1)C(F)(F)F (single isomer, unassigned) [Example 166] came out at 0.3

###

- test-system: soluble guanylate cyclase (sGC) (Rattus norvegicus, UniProt P20595)
- Construct: made in house; host or cells: baculovirus/Sf9 insect cells
- assay-info: Activating action at the sGC enzyme in vitro (PPi detection, luciferase)
- Type: biochemical
reported-endpoint: MEC (minimum effective concentration), activating action at the sGC enzyme
Value and unit, in that order.

Completed entries (count: 6):
>>> recorded_result("O=C(Nc1cccc(CC2(C(=O)O)CC2)c1)C(c1ccc(CN2N=C(c3ccccc3)OCC2=O)cc1)C1CCC(F)(F)C1 (single isomer, unassigned)")
"1.2 nM"
>>> recorded_result("O=C(Nc1cccc(CC2(C(=O)O)CC2)c1)C(c1ccc(Cn2ccc(C(F)(F)F)cc2=O)cc1)C1CCCC1 (stereo not shown)")
"10 nM"
>>> recorded_result("O=C(Nc1cccc(CC2(C(=O)O)CC2)c1)C(c1ccc(CN2Cc3c(F)cccc3C2=O)cc1)C1CCCC1 (stereo not shown)")
"1.2 nM"
>>> recorded_result("O=C(O)C1Cc2cccc(NC(=O)C(c3ccc(CN4N=C(c5ccccc5)OCC4=O)cc3)C3CCCC3)c2C1 (single isomer, unassigned)")
"10 nM"
>>> recorded_result("O=C(O)CCc1cc(F)cc(NC(=O)C(c2ccc(CN3N=C(c4ccccc4)OCC3=O)cc2)C2CCCC2)c1 (stereo not shown)")
"8.1 nM"
>>> recorded_result("O=C(Nc1ccc(F)c(CC2(C(=O)O)CC2)c1)C(c1ccc(CN2N=C(c3ccccc3)OCC2=O)cc1)C1CCCC1 (stereo not shown)")
"4.1 nM"

Batch lookup, MEC (minimum effective concentration), activating action at the sGC enzyme per entry.
1. C[C@H]([C@H](C(=O)Nc1cccc(CC2(C(=O)O)CC2)c1)c1ccc(CN2Cc3ccccc3C2=O)cc1)C(F)(F)F
2. CC(C(C(=O)Nc1cccc(CCC(=O)O)c1Cl)c1ccc(CN2N=C(c3ccccc3)OCC2=O)cc1)C(F)(F)F (stereo not shown)
3. O=C(O)CCc1cc(NC(=O)C(c2ccc(CN3N=C(c4ccccc4)OCC3=O)cc2)C2CCCC2)ccc1F (stereo not shown)
4. CC(C(C(=O)Nc1cccc(CC2(C(=O)O)CC2)c1)c1ccc(CN2N=C(c3ccccc3)OCC2=O)cc1)C(F)(F)F (single isomer, unassigned) [Example 166]
5. O=C(Nc1cccc(CC2(C(=O)O)CC2)c1F)C(c1ccc(CN2N=C(c3ccccc3)OCC2=O)cc1)C1CCCC1 (stereo not shown)
6. O=C(Nc1cc(CC2(C(=O)O)CC2)ccc1F)C(c1ccc(CN2N=C(c3ccccc3)OCC2=O)cc1)C1CCCC1 (stereo not shown)
7. CC1(C(=O)O)Cc2cccc(NC(=O)C(c3ccc(CN4N=C(c5ccccc5)OCC4=O)cc3)C3CCCC3)c2C1 (single isomer, unassigned)

Result block:
["0.5 nM", "7 nM", "93 nM", "0.4 nM", "3.3 nM", "0.4 nM", "4.1 nM"]

###

- test-system: recombinant guanylate cyclase reporter cell line (Rattus norvegicus, UniProt P20595)
- Construct: expressed in transfected cells; host or cells: CHO reporter cell line
- assay-info: sGC-activating activity in the CHO reporter cell in vitro
- Type: cell-based
reported-endpoint: MEC (minimum effective concentration), sGC-activating activity in the CHO reporter cell (nM)
One number for each entry, in nM.

Completed entries (count: 3):
>>> recorded_result("CC(C(C(=O)Nc1cc(CCC(=O)O)ccc1F)c1ccc(CN2N=C(c3ccccc3)OCC2=O)cc1)C(F)(F)F (stereo not shown)")
0.3
>>> recorded_result("CC(C)C(C(=O)Nc1cccc(CCC(=O)O)c1)c1ccc(CN2N=C(c3ccccc3)OCC2=O)cc1 (single isomer, unassigned)")
10
>>> recorded_result("O=C(Nc1cccc(CC2(C(=O)O)CC2)c1)C(c1ccc(CN2Cc3c(F)cccc3C2=O)cc1)C1CCCC1 (stereo not shown)")
3

Batch lookup, MEC (minimum effective concentration), sGC-activating activity in the CHO reporter cell per entry.
1. CCC(C)C(C(=O)Nc1cccc(CCC(=O)O)c1)c1ccc(CN2N=C(c3ccccc3)OCC2=O)cc1 (single isomer, unassigned)
2. O=C(O)CC[C@H]1CC[C@H](NC(=O)C(c2ccc(CN3N=C(c4ccccc4)OCC3=O)cc2)C2CCCC2)CC1 (single isomer, unassigned)
3. O=C(Nc1ccc(F)c(CC2(C(=O)O)CC2)c1)C(c1ccc(CN2N=C(c3ccccc3)OCC2=O)cc1)C1CCCC1 (stereo not shown)
4. CC(C(C(=O)Nc1cccc(CC2(C(=O)O)CC2)c1)c1ccc(CN2N=C(c3ccccc3)OCC2=O)cc1)C(F)(F)F (single isomer, unassigned) [Example 164]
5. CC(CC(F)(F)F)C(C(=O)Nc1cccc(CC2(C(=O)O)CC2)c1)c1ccc(CN2N=C(c3ccccc3)OCC2=O)cc1 (single isomer, unassigned)

Result block:
1: 3; 2: 30; 3: 1; 4: 0.3; 5: 30

Batch lookup, MEC (minimum effective concentration), sGC-activating activity in the CHO reporter cell per entry.
1. O=C(Nc1cccc(CC2(C(=O)O)CC2)c1F)C(c1ccc(CN2N=C(c3ccccc3)OCC2=O)cc1)C1CCCC1 (stereo not shown)
2. O=C(O)C1Cc2cccc(NC(=O)C(c3ccc(CN4N=C(c5ccccc5)OCC4=O)cc3)C3CCCC3)c2C1 (single isomer, unassigned)
3. COCC(C)C(C(=O)Nc1cccc(CCC(=O)O)c1C)c1ccc(CN2N=C(c3ccccc3)OCC2=O)cc1 (stereo not shown)
4. Cc1c(CCC(=O)O)cccc1NC(=O)C(c1ccc(CN2CCN(c3cccc(Cl)c3)C2=O)cc1)C1CCCC1 (racemic)
5. C[C@H]([C@H](C(=O)Nc1cccc(CC2(C(=O)O)CC2)c1)c1ccc(CN2Cc3c(F)cccc3C2=O)cc1)C(F)(F)F

Result block:
1: 0.3; 2: 30; 3: 300; 4: 300; 5: 0.2
